- Test Target: BKV VP1 (BK virus (BKV), AS strain) (UniProt P14996)
- Sequence (P14996 whole entry): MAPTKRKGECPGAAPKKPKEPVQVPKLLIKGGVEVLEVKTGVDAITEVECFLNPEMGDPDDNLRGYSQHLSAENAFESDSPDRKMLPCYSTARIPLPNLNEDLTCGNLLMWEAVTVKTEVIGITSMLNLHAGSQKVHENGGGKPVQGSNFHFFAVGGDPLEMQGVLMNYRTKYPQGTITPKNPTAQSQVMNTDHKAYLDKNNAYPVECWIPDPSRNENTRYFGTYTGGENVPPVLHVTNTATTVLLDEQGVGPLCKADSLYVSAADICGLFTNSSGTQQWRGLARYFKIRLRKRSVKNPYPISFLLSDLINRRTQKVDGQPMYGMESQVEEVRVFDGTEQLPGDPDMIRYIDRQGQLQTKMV
- Protocol Notes: direct ELISA
# pEC50 values compiled below
Field pEC50 (float): negative decimal logarithm of the concentration in molar.

NI-307.43A11 (antibody, V domains shown) VH: QVQLQESGPGLVKPSGTLSLTCAVTGGSISSSNWWSWVRQSPGKGLEWIGEIHHDGNLNYNPLLKSRVSMSLDRSKNQFSLKLTSVTAADTAVYYCARWDFFFDSSYYIRGFDLWGQGTMVTVSS VL: ETTLTQSPGTLSLSPGERVTLSCRASQSVDRNYLAWYQQKPGQSPRLLIYSASRRATGIPDRFSGSGSGTDFTLTISRLEPEDFVVYYCQQYGGSPPITFGQGTRLEIK	8.01
NI-307.25G10 (antibody, V domains shown) VH: EVQLVESGGGLVQPGGSLRLSCVASGIIFKDYDFHWVRQVKEKGLEWVSAIGTAGDPYYAASVKGRFTVSRENGKNSVYLRMNNVGAGDTALYYCTSGNYFDRGSFRPSAFDMWGQGTMVTVSS VL: EIVLTQSPGTLSLSPGERATLSCWASQSVSSNYLAWYQHKPGQAPRLLIFRASRRATDIPERFSAGGSGTDFTLTISRLEAEDSAVYYCQEYGSAPPASITFGQGTRLEIK	9.29

Proceed to the following item.
QUERY: Given the entry NI-307.3G4 (antibody, V domains shown) VH: QVQLVQSGAELKKPGAAVKVSCQASGYNFLSYGINWVRQIPGQGLQWLGWISTYDGTMNYDQKPDNRVTVTTDTSSSTVYLELRGLRSDDTGVYYCVRDRCAGAGCSHSLGYWGQGTLVTVSS VL: DIQMTQSPSALSASVGDRVTISCRASQNINTQLNWYQEKPGKAPELLIYGAFNLQSGAPSTFSGSGSGTDFTLTITSLQPEDFASYYCQQGFHAPYTFGRGTKVDIK , report its measured pEC50.
RESULT: 7.56
